- System: U2OS
- assay-notes: Multiplex assay against U2OS
- Assay type: toxicity, cell-based
- condition-summary: human, 24 h, 1 µM, compound concentration 1 uM, replicate 2
True if Population Fragmented Nuclei (%) is below 8%. False if not; exact matches included in False.

compound	classification
Cc1[nH]c(/C=C2\C(=O)Nc3ccc(S(=O)(=O)N(C)c4cccc(Cl)c4)cc32)c(C)c1C(=O)N1CCN(C)CC1	False
NC(=O)Nc1cc(-c2cccc(F)c2)sc1C(=O)N[C@H]1CCCNC1	True
Cc1nc(-c2ccc(-c3ccc(C(=O)N4CCc5cc6c(cc54)C4(CCN(C)CC4)CO6)cc3)c(C)c2)no1	False
CC(C)NCC(O)COc1ccc(CCOCC2CC2)cc1.Cl (stereo not drawn) [BETAXOLOL HYDROCHLORIDE]	True
CN1CCN(CCOc2cc(OC3CCOCC3)c3c(Nc4c(Cl)ccc5c4OCO5)ncnc3c2)CC1	False

Pending compound:
Qu. Hi there! Is Population Fragmented Nuclei (%) for CN(C)CC#Cc1ccc(OCCCc2sc(N3CCc4cccc(C(=O)Nc5nc6ccccc6s5)c4C3)nc2C(=O)O)c(F)c1 below 8%, do you know?
Ans. False

====

Field: Population Hoechst High Intensity Objects (%). Provide a value for each of the compounds that follow.
- Tested on: HEK-293T
- assay-notes: Multiplex assay against HEK293T
- Type: toxicity, cell-based
- condition-summary: human, 12 h, 1 µM, compound concentration 1 uM, replicate 2
Give bare numbers, in %.

Recorded results for 4 compounds are shown here.
compound	unit-descriptor	readout-value
Cl.N#Cc1ccc2[nH]cc(CCCCN3CCN(c4ccc5oc(C(N)=O)cc5c4)CC3)c2c1 [VILAZODONE HYDROCHLORIDE]	%	3
Cc1nc(-c2cn3c(n2)-c2ccc(-c4cnn(C(C)(C)C(N)=O)c4)cc2OCC3)n(C(C)C)n1	%	7
CC(C)NCC(O)COc1ccc(CCOCC2CC2)cc1.Cl (stereo unspecified) [BETAXOLOL HYDROCHLORIDE]	%	1
NC(=O)Nc1cc(-c2cccc(F)c2)sc1C(=O)N[C@H]1CCCNC1	%	5

Provide Population Hoechst High Intensity Objects (%) for all items below, preserving their order.
1. CC(C)(O)CNc1ncc(-c2ccnc(Nc3ccnc(Cl)c3)n2)c(CC2CC2)n1
2. CN1CCCC(n2nc(Cc3ccc(Cl)cc3)c3ccccc3c2=O)CC1.Cl (stereo unspecified) [AZELASTINE HYDROCHLORIDE]
3. Cc1nc(-c2ccc(-c3ccc(C(=O)N4CCc5cc6c(cc54)C4(CCN(C)CC4)CO6)cc3)c(C)c2)no1
4. C[C@@]1(C(=O)Nc2ccc(F)nc2)CCCN1c1nc(Nc2cc(C3CC3)n[nH]2)c2cccn2n1

Ans.
[8, 5, 3, 12]

I have 2 compounds here; please give me Population Hoechst High Intensity Objects (%) for each one.
1. C=CC(=O)Nc1cc2c(Nc3ccc(F)c(Cl)c3)ncnc2cc1OCCCN1CCOCC1.Cl.Cl [CANERTINIB DIHYDROCHLORIDE]
2. CN(C)CC#Cc1ccc(OCCCc2sc(N3CCc4cccc(C(=O)Nc5nc6ccccc6s5)c4C3)nc2C(=O)O)c(F)c1

Ans.
[7, 3]

Please give Population Hoechst High Intensity Objects (%) for each item listed below.
1. Cc1[nH]c(/C=C2\C(=O)Nc3ccc(S(=O)(=O)N(C)c4cccc(Cl)c4)cc32)c(C)c1C(=O)N1CCN(C)CC1
2. COc1cccc([C@@H](C)NCCCc2ccccc2Cl)c1.Cl [TECALCET HYDROCHLORIDE]
3. COc1cc(-n2cnc3cc(-c4ccc(Cl)cc4)sc3c2=O)ccc1OCCN1CCCC1
4. CN1CCN(c2ccc(OC(F)(F)F)c(Nc3ncc4c(n3)-c3c(c(C(N)=O)nn3CCO)CC4)c2)CC1
5. c1cn2cc(-c3ccc4cn[nH]c4c3)nc(Nc3ccc(N4CCOCC4)cc3)c2n1
6. O=C1NCN(c2ccccc2)C12CCN(CCCOc1ccc(F)cc1)CC2 [SPIRAMIDE]

Ans.
1: 4; 2: 3; 3: 4; 4: 5; 5: 4; 6: 7

====

- System: HEK-293T
- assay-notes: Multiplex assay against HEK293T
- Type: toxicity, cell-based
- condition-summary: human, 12 h, 10 µM, compound concentration 10 uM, replicate 1
Classification field. Basis: Population Apoptotic (%). Definitions: lo = under 50%, mid = from 50% up to 80%, hi = 80% and over

Below, 2 molecules whose answers are already recorded.
molecule	classification
CN(C)C(=O)/C(C#N)=C/c1ccc(-c2nc3cnc4[nH]ccc4c3n2C2CCCCC2)o1	lo
Cc1cc(C)cc(-c2cnc3cc(Cl)c(-c4cccc(O)c4)cc3c2OCCCN)c1	mid

Consider the record given below.
Qu. Textbook exercise: identify the category of the molecule given here, C[C@@H](NCCCc1cccc(C(F)(F)F)c1)c1cccc2ccccc12.Cl [CINACALCET HYDROCHLORIDE] , according to its measured value.
Ans. hi

====

- Tested on: Fibroblast
- assay-notes: Multiplex assay against human fibroblast
- Type: toxicity, cell-based
- condition-summary: 12 h, 10 µM, compound concentration 10 uM, replicate 2
Assignment: determine reported Population Hoechst High Intensity Objects (%) for the given compounds.
Give bare numbers, in %.

compound	system-under-test	readout-value
COc1cc2nccc(Oc3ccc(NC(=O)Nc4cc(C)on4)c(Cl)c3)c2cc1OC.O	Fibroblast	3

Please report Population Hoechst High Intensity Objects (%) for every entry that follows.
1. C=CC(=O)Nc1cc2c(Nc3ccc(F)c(Cl)c3)ncnc2cc1OCCCN1CCOCC1.Cl.Cl [CANERTINIB DIHYDROCHLORIDE]
2. CN(C)C(=O)/C(C#N)=C/c1ccc(-c2nc3cnc4[nH]ccc4c3n2C2CCCCC2)o1
3. CN1CCC[C@@H]1CCO[C@](C)(c1ccccc1)c1ccc(Cl)cc1.O=C(O)/C=C/C(=O)O [CLEMASTINE FUMARATE]
4. COc1cccc([C@@H](C)NCCCc2ccccc2Cl)c1.Cl [TECALCET HYDROCHLORIDE]
5. Cc1c(-c2ccc(O)cc2)n(Cc2ccc(OCCN3CCCCCC3)cc2)c2ccc(O)cc12
6. Cn1cncc1[C@@](O)(COc1ccc(C#N)cc1-c1ccc(OC(F)(F)F)cc1)c1ccc(C#N)cc1
7. CNc1nc(NCc2ccc(NS(C)(=O)=O)cc2Cl)cc(-c2ccccn2)n1

Ans.
1. 43
2. 54
3. 21
4. 5
5. 2
6. 32
7. 9

====

- Test system: Fibroblast
- assay-notes: Multiplex assay against human fibroblast
- Format: toxicity, cell-based
- condition-summary: 24 h, 1 µM, compound concentration 1 uM, replicate 1
experimental-endpoint: Population Membrane Permeable-Phenotype (%)
Answers are plain numbers, in %.

The cases that follow already have their Population Membrane Permeable-Phenotype (%) on record.
smiles-record	system-under-test	readout-value
NC(=O)Nc1cc(-c2cccc(F)c2)sc1C(=O)N[C@H]1CCCNC1	Fibroblast	11
CN(C)C(=O)/C(C#N)=C/c1ccc(-c2nc3cnc4[nH]ccc4c3n2C2CCCCC2)o1	Fibroblast	33
Cc1nc(Nc2n[nH]c3c2CN(C(=O)N[C@H](CN(C)C)c2ccccc2)C3(C)C)c2sccc2n1	Fibroblast	7

Short answer for C=CC(=O)Nc1cccc(C(=O)Nc2ccc(Nc3cc(-c4[nH]c(SC)nc4C)ccn3)cc2)c1 : Population Membrane Permeable-Phenotype (%) was 29

====

Would you kindly list Population Mitotic Cells (%) for each of these compounds?
- System: U2OS
- assay-notes: Multiplex assay against U2OS
- Format: toxicity, cell-based
- condition-summary: human, 12 h, 1 µM, compound concentration 1 uM, replicate 2
Answers are plain numbers, in %.

compound	experimental-endpoint	readout-value
Cl.N#Cc1ccc2[nH]cc(CCCCN3CCN(c4ccc5oc(C(N)=O)cc5c4)CC3)c2c1 [VILAZODONE HYDROCHLORIDE]	Population Mitotic Cells (%)	72
CC(C)NCC(O)COc1ccc(CCOCC2CC2)cc1.Cl (stereo not drawn) [BETAXOLOL HYDROCHLORIDE]	Population Mitotic Cells (%)	0
O=C1NCN(c2ccccc2)C12CCN(CCCOc1ccc(F)cc1)CC2 [SPIRAMIDE]	Population Mitotic Cells (%)	100
Cc1cc(C)cc(-c2cnc3cc(Cl)c(-c4cccc(O)c4)cc3c2OCCCN)c1	Population Mitotic Cells (%)	55
NC(=O)Nc1cc(-c2cccc(F)c2)sc1C(=O)N[C@H]1CCCNC1	Population Mitotic Cells (%)	100
CC[C@H](C)C(=O)O[C@H]1C[C@@H](C)C=C2C=C[C@H](C)[C@H](CC[C@@H]3C[C@@H](O)CC(=O)O3)[C@H]21	Population Mitotic Cells (%)	75
CC(C)(O)CNc1ncc(-c2ccnc(Nc3ccnc(Cl)c3)n2)c(CC2CC2)n1	Population Mitotic Cells (%)	90

Population Mitotic Cells (%) reported for this compound Cc1c(-c2ccc(O)cc2)n(Cc2ccc(OCCN3CCCCCC3)cc2)c2ccc(O)cc12 : 100

All values here come from ChEMBL document CHEMBL4689842.
